Measured diameter of the inhibition zone (DIZ) values are reported for all entries that follow.
System: Streptococcus pyogenes
Assay: Antibacterial activity against Streptococcus pyogenes clinical isolate after 24 hrs by disc diffusion method
Type: functional
// units = mm; emit number, no label

{"columns": ["molecule", "endpoint unit", "diameter of the inhibition zone (DIZ)"],
 "data": [
  ["CCCC1=NOC(CCCCCCCCC(=O)OC)C1 (stereo not given)", "mm", 20.2],
  ["CCCCCC1C(CCC)=NOC1CC[C@H](O)CCCCCCCC(=O)OC (stereo not given in full)", "mm", 22.4],
  ["CCCCCC[C@@H](O)CC1C(CCC)=NOC1CCCCCCCC(=O)OC (stereo not given in full)", "mm", 23.2],
  ["CCCCCCCCC1C(CCC)=NOC1CCCCCCCC(=O)OC (stereo not given)", "mm", 22.3]
]}

Let's switch to this molecule now.
Inquiry: Recorded diameter of the inhibition zone (DIZ) for "CCCc1cc(CCCCCCCCC(=O)O)on1" , please?
Reply text: 21.6

----------
Measured MFC values are reported for all entries that follow.
System: Candida tropicalis
Test: Fungicidal activity against Candida tropicalis clinical isolate by micro dilution method
Assay type: functional
// units = µg/mL; emit number, no label

{"columns": ["molecule", "endpoint unit", "MFC"],
 "data": [
  ["CCCC1=NOC(CCCCCCCCC(=O)OC)C1 (configuration not stated)", "µg/mL", 128],
  ["CCCCCC[C@@H](O)CC1C(CCC)=NOC1CCCCCCCC(=O)OC (some centres not stated)", "µg/mL", 256]
]}

Let's switch to this molecule now.
Inquiry: Recorded MFC for "OC(Cn1cncn1)(Cn1cncn1)c1ccc(F)cc1F" , please?
Reply text: 256

----------
Measured MIC90 values are reported for all entries that follow.
System: Candida tropicalis
Test: Antifungal activity against Candida tropicalis after 20 hrs by agar dilution method
Format: functional
// units = µg/mL; emit number, no label

{"columns": ["compound", "quantity name", "endpoint unit", "value reported"],
 "data": [
  ["CCCCCC[C@@H](O)CC1C(CCC)=NOC1CCCCCCCC(=O)OC (some centres not stated)", "MIC90", "µg/mL", 64],
  ["CCCCCCCCC1C(CCC)=NOC1CCCCCCCC(=O)OC (configuration not stated)", "MIC90", "µg/mL", 128],
  ["OC(Cn1cncn1)(Cn1cncn1)c1ccc(F)cc1F", "MIC90", "µg/mL", 32]
]}

Let's switch to this compound now.
Inquiry: Recorded MIC90 for CCCCCC1C(CCC)=NOC1CC[C@H](O)CCCCCCCC(=O)OC (some centres not stated) , please?
Reply text: 128

----------
Tested on: Candida albicans
Experiment: Antifungal activity against Candida albicans after 20 hrs by agar dilution method
Format: functional
quantity name: MIC90 (mg/L)
// units = mg/L; emit number, no label

Inquiry: Recorded MIC90 for CCCCCC1C(CCC)=NOC1CC[C@H](O)CCCCCCCC(=O)OC (some centres not stated) , please?
Reply text: 128

Inquiry: Recorded MIC90 for CCCCCC[C@@H](O)CC1C(CCC)=NOC1CCCCCCCC(=O)OC (some centres not stated) , please?
Reply text: 128

Inquiry: Recorded MIC90 for CCCCCCCCC1C(CCC)=NOC1CCCCCCCC(=O)OC (configuration not stated) , please?
Reply text: 128
